Below: a set of entries, each annotated with reported GBA EC1.5.
Target: GCase (GBA) in human fibroblast cell line GM10915 harboring the L444P GBA mutation (Homo sapiens, UniProt P04062, L483P)
Construct: Human fibroblast cell line GM10915 harboring the L444P GBA mutation; host or cells: GM10915 human fibroblasts
Sequence (P04062 40-536 L483P): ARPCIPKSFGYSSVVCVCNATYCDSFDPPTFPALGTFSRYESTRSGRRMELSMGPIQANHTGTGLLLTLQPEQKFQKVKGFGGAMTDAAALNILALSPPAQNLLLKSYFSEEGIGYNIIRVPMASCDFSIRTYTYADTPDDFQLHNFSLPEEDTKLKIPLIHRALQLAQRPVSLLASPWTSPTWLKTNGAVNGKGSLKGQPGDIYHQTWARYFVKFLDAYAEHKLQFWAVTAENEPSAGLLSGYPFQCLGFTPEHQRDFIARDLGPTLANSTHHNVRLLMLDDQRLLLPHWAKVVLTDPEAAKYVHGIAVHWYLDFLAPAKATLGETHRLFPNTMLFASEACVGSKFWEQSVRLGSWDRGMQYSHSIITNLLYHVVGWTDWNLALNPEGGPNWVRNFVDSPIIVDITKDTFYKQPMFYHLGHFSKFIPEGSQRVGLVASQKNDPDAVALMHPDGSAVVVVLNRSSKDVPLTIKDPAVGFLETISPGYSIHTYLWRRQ
Assay: GCase activity assay (4-MUG substrate, normalised to crystal violet staining) in L444P GBA fibroblasts
Type: cell-based
Details: concentration giving 150% GCase activity (1.5-fold induction), 5 days exposure, 8-point dose range
Give me the value, and tack the unit on after it.

Study these solved cases before continuing.
molecule="C1CCN(CCC2=NOC[C@@H](CN3CCCCC3)O2)CC1 [compound 890]" assayreadout="GBA EC1.5" result="8 µM"
molecule="COc1ncc(CC2(C3=NOC(C)C(CN4CCCCC4)O3)CCN(C)C2)cc1Cl (centres unmarked) [compound 646]" assayreadout="GBA EC1.5" result="50 µM"
molecule="CNC1CNCC(C2=NOCC(CN3CCCCC3)O2)C1 (racemic) [compound 756]" assayreadout="GBA EC1.5" result="39 µM"
molecule="F[C@H]1CN[C@H](C2=NOCC(CN3CCCCC3)O2)C1 (some centres unmarked) [compound 556]" assayreadout="GBA EC1.5" result="50 µM"

In the following, a different molecule is considered.
**Query** Supply measured GBA EC1.5 of c1ccc(N2CCC(C3=NOCC(CN4CCCCC4)O3)CC2)nc1 (centres unmarked) [compound 678] in your reply.
**Result** 50 µM

Ref: patent US20240390383A1
